experimental.protocol: Dynamic surface tension of aqueous solutions, maximum bubble pressure method
Format: physicochemical
condition.set: saturated solution made using 1.0 wt % in water, 1 b/s
recorded.endpoint: γ limiting, 1 b/s
The number alone won't do; follow it with the unit.

{"columns": ["compound", "value.measured"],
 "data": [
  ["CCCCOCC(O)CNCCCCCCN (racemic)", "40.1 dyne/cm"]
]}

# batch size: 7; output γ limiting, 1 b/s per entry
1. CC(C)COCC(O)CNCCN(CC(O)COCC(C)C)CC(O)COCC(C)C (centres unmarked)
2. CCCCC(CC)COCC(O)CNCCN (mixture of isomers)
3. CCCCOCC(O)CN(CCCCCCN(CC(O)COCCCC)CC(O)COCCCC)CC(O)COCCCC (centres unmarked)
4. CCCCOCC(O)CN(CCCC(C)CN(CC(O)COCCCC)CC(O)COCCCC)CC(O)COCCCC (centres unmarked)
5. CCCCOCC(O)CNCCN(CC(O)COCCCC)CC(O)COCCCC (centres unmarked)
6. CCCCOCC(O)CN(CC(O)COCCCC)C1CCC(CC2CCC(N(CC(O)COCCCC)CC(O)COCCCC)CC2)CC1 (centres unmarked)
7. CC(C)COCC(O)CN(CCN(CC(O)COCC(C)C)CC(O)COCC(C)C)CC(O)COCC(C)C (centres unmarked)

result:
34.3 dyne/cm
28.3 dyne/cm
39.0 dyne/cm
36.4 dyne/cm
35.6 dyne/cm
68.5 dyne/cm
36.7 dyne/cm

---

Provide the reported γ at 0.1 wt %, 0.1 b/s of each item.
experimental.protocol: Dynamic surface tension of aqueous solutions, maximum bubble pressure method
Format: physicochemical
condition.set: 0.1 wt % in distilled water, 0.1 b/s
Answers are plain numbers, in dyne/cm.

See these solved cases before continuing.
{"columns": ["molecule", "value.measured"],
 "data": [
  ["CCCCOCC(O)CN(CCN(CC(O)COCCCC)CC(O)COCCCC)CC(O)COCCCC (stereo not shown)", 36.7],
  ["CCCCC(CC)COCC(O)CNCCN(CC(O)COCC(CC)CCCC)CC(O)COCC(CC)CCCC (stereo not shown)", 45.3],
  ["CCCCOCC(O)CNCCCOCCOCCOCCCN (stereo not shown)", 50.3]
]}

Consider the additional molecule presented here.
In plain terms, CCCCOCC(O)CN(CCCCCCN(CC(O)COCCCC)CC(O)COCCCC)CC(O)COCCCC (stereo not shown) has a documented γ at 0.1 wt %, 0.1 b/s of 42.9

---

experimental.protocol: Dynamic surface tension of aqueous solutions, maximum bubble pressure method
Assay type: physicochemical
condition.set: saturated solution made using 1.0 wt % in water, 20 b/s
recorded.endpoint: γ limiting, 20 b/s (dyne/cm)
Answers are plain numbers, in dyne/cm.

See these solved cases before continuing.
{"columns": ["compound", "γ limiting, 20 b/s, dyne/cm"],
 "data": [
  ["CCCCOCC(O)CNC1CCC(CC2CCC(N)CC2)CC1 (mixture of isomers)", 48.7],
  ["CCCCOCC(O)CNCCN(CC(O)COCCCC)CC(O)COCCCC (stereo not shown)", 38.3],
  ["CCCCOCC(O)CN(CCCCCCN(CC(O)COCCCC)CC(O)COCCCC)CC(O)COCCCC (stereo not shown)", 41.9],
  ["CCCCC(CC)COCC(O)CN(CCN(CC(O)COCC(CC)CCCC)CC(O)COCC(CC)CCCC)CC(O)COCC(CC)CCCC (stereo not shown)", 52.1],
  ["CCCCOCC(O)CNCCCOCCOCCOCCCN (stereo not shown)", 45.7]
]}

# batch size: 2; output γ limiting, 20 b/s per entry
1. CCCCOCC(O)CN(CCCOCCOCCOCCCN(CC(O)COCCCC)CC(O)COCCCC)CC(O)COCCCC (stereo not shown)
2. CCCCOCC(O)CNCCCCCCN(CC(O)COCCCC)CC(O)COCCCC (stereo not shown)

result:
39.1
44.4
